Test system: KURAMOCHI (Ovarian Carcinoma)
Assay: combination Emax (second highest fraction inhibited in the dose matrix, 72 h); higher = more inhibition; extreme values may be limits of the assay

compound	combination Emax
C[C@@H](Oc1cc(-c2cnn(C3CCNCC3)c2)cnc1N)c1c(Cl)ccc(F)c1Cl [Crizotinib] + Cn1cnc2c(F)c(Nc3ccc(Br)cc3Cl)c(C(=O)NOCCO)cc21 [Selumetinib] (first compound max 10 µM, 7x7, partner max 10 µM)	0.508

* * *

Measured Bliss excess, listed per entry.
System: LS-180 (Colorectal Carcinoma);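 note: after 72 h of two-drug dosing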
Assay: Bliss excess, mean over the matrix (fraction); higher = more synergy

compound	subject_of_test	Bliss excess
CN(C)CCCOc1ccc(-c2ccc3ncc4c(c3c2)n(C2CCOCC2)c(=O)n4C)cn1 [AZD0156] + C=CCn1c(=O)c2cnc(Nc3ccc(N4CCN(C)CC4)cc3)nc2n1-c1cccc(C(C)(C)O)n1 [AZD1775] (first compound max 1 µM, partner max 1 µM)	LS-180 (Colorectal Carcinoma)	-0.0459
Cc1c2c(nn1C)CSCc1cc(n(C)n1)CSc1cc(c3ccccc3c1)OCCCc1c(C(=O)O)n(C)c3c-2c(Cl)ccc13 [AZD5991] + CS(=O)(=O)CCNCc1ccc(-c2ccc3ncnc(Nc4ccc(OCc5cccc(F)c5)c(Cl)c4)c3c2)o1 [Lapatinib] (first compound max 1 µM, 7x7, partner max 10 µM)	LS-180 (Colorectal Carcinoma)	0.0651
Cc1nc(-c2cn3c(n2)-c2ccc(-c4cnn(C(C)(C)C(N)=O)c4)cc2OCC3)n(C(C)C)n1 [Taselisib] + O=C(Nc1ccc2[nH]nc(-c3ccncc3)c2c1)[C@@H]1CCN(CC(=O)N2CCN(c3ccc(-c4ncccn4)cc3)CC2)C1 [SCH772984] (first compound max 10 µM, 7x7, partner max 5 µM)	LS-180 (Colorectal Carcinoma)	0.0776
CC1(C)CCC(CN2CCN(c3ccc(C(=O)NS(=O)(=O)c4ccc(NCC5CCOCC5)c([N+](=O)[O-])c4)c(Oc4cnc5[nH]ccc5c4)c3)CC2)=C(c2ccc(Cl)cc2)C1 [Venetoclax] + COc1cc(Nc2ncc3c(n2)-c2ccc(Cl)cc2C(c2c(F)cccc2OC)=NC3)ccc1C(=O)O [Alisertib] (first compound max 1 µM, 7x7, partner max 10 µM)	LS-180 (Colorectal Carcinoma)	-0.008
COc1nnc2ccc(N3CCC(c4ccc(OCCN5CCN(C)C(=O)[C@H]5C)cc4)CC3)nn12 [AZD5153] + CC1(C)CCC(CN2CCN(c3ccc(C(=O)NS(=O)(=O)c4ccc(NCC5CCOCC5)c([N+](=O)[O-])c4)c(Oc4cnc5[nH]ccc5c4)c3)CC2)=C(c2ccc(Cl)cc2)C1 [Venetoclax] (first compound max 1 µM, 7x7, partner max 1 µM)	LS-180 (Colorectal Carcinoma)	-0.0614
Cc1c2c(nn1C)CSCc1cc(n(C)n1)CSc1cc(c3ccccc3c1)OCCCc1c(C(=O)O)n(C)c3c-2c(Cl)ccc13 [AZD5991] + Nc1ccn([C@@H]2O[C@H](CO)[C@@H](O)C2(F)F)c(=O)n1 [Gemcitabine] (first compound max 1 µM, 7x7, partner max 0.3 µM)	LS-180 (Colorectal Carcinoma)	-0.061
